System: STAPHYLOCOCCUS AUREUS CMX 553
Protocol Text: In vitro antibacterial activity, MIC, BHI agar dilution
Assay type: cell-based
Experimental Context: S. aureus CMX 553, unit assumed
Observed Property: MIC (µg/mL)
Please give a number only; it is taken to be in µg/mL.

Completed entries (count: 7):
{"columns": ["Compound", "Display Unit", "MIC"],
 "data": [
  ["CC[C@H]1OC(=O)[C@H](C)C(=O)[C@H](C)[C@@H](O[C@@H]2O[C@H](C)C[C@H](N(C)C)[C@H]2O)[C@](C)(OC)C[C@@H](C)C2=NC[C@H](COCc3cccc(F)c3)N3C(=O)O[C@@]1(C)[C@H]3[C@H]2C", "µg/mL", 0.1],
  ["CC[C@H]1OC(=O)[C@H](C)C(=O)[C@H](C)[C@@H](O[C@@H]2O[C@H](C)C[C@H](N(C)C)[C@H]2O)[C@](C)(OC)C[C@@H](C)C2=NC(COCc3ccccc3)C(COCc3ccccc3)N3C(=O)O[C@@]1(C)[C@H]3[C@H]2C (some centres unmarked)", "µg/mL", 0.39],
  ["CC[C@H]1OC(=O)[C@H](C)C(=O)[C@H](C)[C@@H](O[C@@H]2O[C@H](C)C[C@H](N(C)C)[C@H]2O)[C@](C)(OC)C[C@@H](C)C2=N[C@H](CN3CCN(C)CC3)CN3C(=O)O[C@@]1(C)[C@H]3[C@H]2C", "µg/mL", 0.78],
  ["CC[C@H]1OC(=O)[C@H](C)C(=O)[C@H](C)[C@@H](O[C@@H]2O[C@H](C)C[C@H](N(C)C)[C@H]2O)[C@](C)(OC)C[C@@H](C)C2=NCC(COC(=O)c3ccc(Cl)cc3)N3C(=O)O[C@@]1(C)[C@H]3[C@H]2C (some centres unmarked)", "µg/mL", 0.1],
  ["CC[C@H]1OC(=O)[C@H](C)C(=O)[C@H](C)[C@@H](O[C@@H]2O[C@H](C)C[C@H](N(C)C)[C@H]2O)[C@](C)(OC)C[C@@H](C)C2=NC[C@H](COC(=O)c3ccncc3)N3C(=O)O[C@@]1(C)[C@H]3[C@H]2C", "µg/mL", 0.39],
  ["CC[C@H]1OC(=O)[C@H](C)C(=O)[C@H](C)[C@@H](O[C@@H]2O[C@H](C)C[C@H](N(C)C)[C@H]2O)[C@](C)(OC)C[C@@H](C)C2=NC[C@H](COCc3ccc(F)cc3)N3C(=O)O[C@@]1(C)[C@H]3[C@H]2C", "µg/mL", 0.1],
  ["CC[C@H]1OC(=O)[C@H](C)C(=O)[C@H](C)[C@@H](O[C@@H]2O[C@H](C)C[C@H](N(C)C)[C@H]2O)[C@](C)(OC)C[C@@H](C)C2=NC[C@H](C)N3C(=O)O[C@@]1(C)[C@H]3[C@H]2C", "µg/mL", 0.78]
]}

With those in mind, consider the next compound.
Endpoint output: MIC of CC[C@H]1OC(=O)[C@H](C)C(=O)[C@H](C)[C@@H](O[C@@H]2O[C@H](C)C[C@H](N(C)C)[C@H]2O)[C@](C)(OC)C[C@@H](C)C2=NC[C@H](Cc3ccc(I)cc3)N3C(=O)O[C@@]1(C)[C@H]3[C@H]2C . Value? 0.2
